Tested on: SK-MEL-5 melanoma
Experimental details: NCI tumour cell line growth inhibition, 48 h; in the data active = GI50 below about 0.43 µM; inactive = the rest
Bench note: report the call from true for active, false for inactive

Observe how each entry below is paired with its result.
Call for entry Cc1ccc(NC(=O)c2ccc(CN3CCN(C)CC3)cc2)cc1Nc1nccc(-c2cccnc2)n1 :
false

And what about the molecule CCOC(=O)c1ccccc1OC(=O)NNc1ccccc1 ?
false

And what about the molecule COc1ccc(/C=C(/C(=O)N2CCN(c3ccccc3)CC2)c2cc(OC)c(OC)c(OC)c2)cc1N ?
true

And what about the molecule Cn1cc(C2=C(c3ccccc3[N+](=O)[O-])C(=O)NC2=O)c2ccccc21 ?
false

And what about the molecule c1ccc(N2N=C(c3cccc(Nc4ccncc4)c3)CC2c2ccc3c(c2)OCO3)cc1 (stereo not drawn) ?
false

***
Call for entry O=c1cc(-c2ccccc2)oc2ccc(OC/C(=N/O)c3ccccc3)cc12 :
false

And what about the molecule CC1(C)N=C(N)N=C(N)N1c1ccc(CCCCc2ccccc2)c(Cl)c1 ?
true

And what about the molecule CC(C)(C)N1CCC1CN (stereo not drawn) ?
false
